- Tested on: NCI-H522
- measurementDescription: NCI tumour cell line growth inhibition, 48 h
Calls of active or inactive are those of the source. No stated cut-off is given here; in the data, active = GI50 up to about 1.1 µM and inactive = higher.
Please reply with one of these outcomes: class 1 = active, class 0 = inactive

Input line: How did this test come out for "Nc1ccnc2c1ncn2[C@H]1C[C@H](O)[C@@H](CO)O1" ?
Output line: class 0

Input line: How did this test come out for CCOP(=O)(OCC)C1CC(n2cc(C)c(=O)[nH]c2=O)OC1CO (centres undefined) ?
Output line: class 0

Input line: How did this test come out for CCCCCCCCCCCCCCCCCCNc1ccn(C2OC(COP(=O)(O)OCC3OC(n4cc(C)c(=O)[nH]c4=O)CC3N=[N+]=[N-])C(O)C2O)c(=O)n1 (centres undefined) ?
Output line: class 0

Input line: How did this test come out for CCCCCCOC(=O)C(N)Cc1ccc(OC)cc1 (centres undefined) ?
Output line: class 0

Input line: How did this test come out for "COCCc1c(C)c(C#N)c2n(C)c3ccccc3n2c1=O" ?
Output line: class 0

Input line: How did this test come out for "O=C(/N=N/c1ccccc1Br)NNc1ccccc1Br" ?
Output line: class 0

Input line: How did this test come out for NC1CCCCC1.O=P(O)(O)C(O)/C=C/c1ccccc1 (centres undefined) ?
Output line: class 0

Input line: How did this test come out for "c1ccc(/N=C2\c3ccccc3CN2c2ccccn2)nc1" ?
Output line: class 0

Input line: How did this test come out for "C/C(=N/NC(=S)Nc1ccc(Cl)cc1)c1cccc(/C(C)=N\NC(=S)Nc2ccc(Cl)cc2)n1" ?
Output line: class 0

Input line: How did this test come out for "CC1(C)N=c2[nH]cnc2=C(C(N)=O)N1" ?
Output line: class 0

Input line: How did this test come out for "O=C(O)c1cc2ccccc2c(/N=N\c2cc(C(F)(F)F)ccc2Cl)c1O" ?
Output line: class 0

Input line: How did this test come out for "COC(=O)Nc1nc2cc(NS(=O)(=O)c3ccc(Cl)cc3)ccc2[nH]1" ?
Output line: class 0

Input line: How did this test come out for "NC(=O)NNCc1ccccc1" ?
Output line: class 0

Input line: How did this test come out for "Cc1ncc([N+](=O)[O-])n1CCN(C)C(=O)CCCn1ccnc1[N+](=O)[O-]" ?
Output line: class 0

Input line: How did this test come out for "COc1cc(OC)c2nc(C)c3c(c2c1)SCC3" ?
Output line: class 0

Input line: How did this test come out for CC1CNC(NS(=O)(=O)c2cc(C(=O)Nc3ccc(Cl)cc3)c(Cl)cc2S)=NN1 (centres undefined) ?
Output line: class 0

Input line: How did this test come out for CC/C=C/c1cc2c(cc1O)CCC1C2CC[C@@]2(C)C1CC[C@@H]2O (some centres undefined) ?
Output line: class 1

Input line: How did this test come out for "NCCOc1ccccn1" ?
Output line: class 0

Input line: How did this test come out for OC1CC(O)c2c(Cl)sc(Cl)c21 (centres undefined) ?
Output line: class 0

Input line: How did this test come out for "O=C(NCCN1CCCCC1)c1ccc(Br)cc1" ?
Output line: class 0

Input line: How did this test come out for "CN(NC(=O)c1cccs1)C1=NCCCN1" ?
Output line: class 0

====

HCT-15 GI50 data
Answers are plain numbers, in µM.

# example entries with known answers
CCCCCCCCCC(O)CC(=O)c1c(O)cccc1O (stereo unspecified)	18.2
CN(C)c1ccc(-c2c(C#N)c(S)n(NS(=O)(=O)c3ccccc3)c(=O)c2C#N)cc1	20.5
COc1cc(C2CC(C)(N3CCOCC3)Oc3cc4c(cc32)OCO4)cc(OC)c1OC (stereo unspecified)	0.136
Cc1c2ccnc(C(=O)NCCN(C)C)c2cc2c3cc(O)ccc3n(C)c12	0.12
COC(=O)NC1(NC(=O)OC)NC(=O)c2ccccc2N1	63.5

Value sought for every listed molecule: GI50.
1. O=C(O)c1cc2ccccc2c(/N=N\c2cc(C(F)(F)F)ccc2Cl)c1O
2. CN1C(=O)CC2(C)c3cc(O)ccc3N(C)C12 (stereo unspecified)
3. COc1cccc(NC(=O)CSc2nnc(-c3ccc(/N=C\c4ccc(Cl)cc4)cc3)o2)c1
4. CCOC(=O)/C=C(\C(=O)OCC)n1cc(Cl)c(=O)n(CC(=O)OCC)c1=O
5. CCN(CCCl)CCCCNc1c2ccccc2nc2ccc(OC)cc12

Output line:
83.8
36
17.3
3.17
0.752
